target: papain (Carica papaya); experiment: Anti-papain activity (casein hydrolysis, Lowry-Folin method); assay type: biochemical; conditions: Table 5 (Example 29); pH 6.2, 30° C., 20 minutes, casein; read-out: Inhibitory activity toward papain, IC50
Sequence (P00784 134-345): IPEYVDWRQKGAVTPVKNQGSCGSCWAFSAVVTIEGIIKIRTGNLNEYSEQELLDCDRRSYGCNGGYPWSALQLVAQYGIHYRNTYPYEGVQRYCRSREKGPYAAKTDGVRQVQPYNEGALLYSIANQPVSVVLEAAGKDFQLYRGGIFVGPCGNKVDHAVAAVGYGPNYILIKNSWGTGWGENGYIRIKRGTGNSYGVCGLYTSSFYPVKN
Overview of recorded IC50 for various compounds
Your answer is read as nM, so omit the unit and give the number.

Some compounds with known IC50 results, for comparison:
# TEST SMILES, UNIT SYMBOL, IC50
measured = [
    ("CCCC[C@@H](C=O)NC(=O)[C@H](CC(C)C)NC(=O)OCc1ccccc1Cl", "nM", 160),
    ("CCCC[C@@H](C=O)NC(=O)[C@H](CC(C)C)NC(C)=CC(=O)c1ccccc1", "nM", 96),
    ("CCCC[C@@H](C=O)NC(=O)[C@H](CC(C)C)NC(=O)OCc1ccc(Cl)cc1", "nM", 58),
    ("CCCC[C@@H](C=O)NC(=O)[C@H](CC(C)C)NS(=O)(=O)c1ccc(C)cc1", "nM", 180),
    ("CCCC[C@@H](C=O)NC(=O)[C@H](CC(C)C)NC(=O)OCC(Cl)(Cl)Cl", "nM", 260),
]

Entry under test: CCCC[C@@H](C=O)NC(=O)[C@H](CC(C)C)NC(=O)OCc1ccccc1 . Its IC50 was 310

Entry under test: CCCC[C@@H](C=O)NC(=O)[C@H](CC(C)C)NC(=O)OCc1ccc(OC)cc1 . Its IC50 was 250

Entry under test: CCCC[C@@H](C=O)NC(=O)[C@H](CC(C)C)NC(=O)CC(C)C . Its IC50 was 120

Entry under test: CCCC[C@@H](C=O)NC(=O)[C@H](CC(C)C)NC(=O)OCc1ccc([N+](=O)[O-])cc1 . Its IC50 was 31

----------
target: cathepsin B (Bos taurus, UniProt P07688); test: Anti-cathepsin activity (cathepsin B, benzyloxycarbonyl-L-lysine-p-nitrophenyl ester substrate); type: biochemical, bovine
PROPERTY NAME: IC50
Quick note: number first, unit second.

Entry under test: CCCC[C@@H](C=O)NC(=O)[C@H](CC(C)C)NP(=S)(c1ccccc1)c1ccccc1 . Its IC50 was 79 nM

----------
Biological target: calpain I (Homo sapiens, UniProt P07384)
Sequence (P07384 1-714): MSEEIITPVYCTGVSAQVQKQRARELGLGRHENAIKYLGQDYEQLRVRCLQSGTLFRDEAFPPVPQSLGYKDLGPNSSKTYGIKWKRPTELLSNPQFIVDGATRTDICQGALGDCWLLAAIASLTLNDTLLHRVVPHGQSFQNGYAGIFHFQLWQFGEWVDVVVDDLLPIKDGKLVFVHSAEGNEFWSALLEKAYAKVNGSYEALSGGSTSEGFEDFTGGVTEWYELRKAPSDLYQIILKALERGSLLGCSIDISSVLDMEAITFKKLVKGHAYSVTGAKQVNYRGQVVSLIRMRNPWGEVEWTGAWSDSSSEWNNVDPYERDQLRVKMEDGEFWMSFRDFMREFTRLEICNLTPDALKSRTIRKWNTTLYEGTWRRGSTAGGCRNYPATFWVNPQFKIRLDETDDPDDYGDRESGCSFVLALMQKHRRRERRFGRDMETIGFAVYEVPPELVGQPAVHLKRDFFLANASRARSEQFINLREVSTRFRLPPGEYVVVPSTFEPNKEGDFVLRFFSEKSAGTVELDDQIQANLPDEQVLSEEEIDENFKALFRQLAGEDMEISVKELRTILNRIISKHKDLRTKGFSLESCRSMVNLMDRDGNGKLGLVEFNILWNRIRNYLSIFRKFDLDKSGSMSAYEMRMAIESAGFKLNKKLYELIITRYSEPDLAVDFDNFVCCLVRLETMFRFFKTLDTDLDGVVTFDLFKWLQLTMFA
Sequence (P04632 1-268 partner): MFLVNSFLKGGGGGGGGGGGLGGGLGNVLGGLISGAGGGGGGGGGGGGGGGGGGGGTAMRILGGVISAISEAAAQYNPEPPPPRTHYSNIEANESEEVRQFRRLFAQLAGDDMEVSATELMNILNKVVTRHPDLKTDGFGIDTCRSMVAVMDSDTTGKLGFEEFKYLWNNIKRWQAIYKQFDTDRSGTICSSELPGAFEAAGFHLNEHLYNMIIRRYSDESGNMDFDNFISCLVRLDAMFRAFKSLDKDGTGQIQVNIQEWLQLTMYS
Assay: Anti-calpain activity, calpain I (casein hydrolysis, Ross-Schatz method)
Format: biochemical
Conditions: Table 3 (Example 28); pH 7.5, 30° C., 30 minutes, casein; read-out: Inhibitory activity toward calpain I, IC50
Peptide text beside a SMILES is read from it. * marks the point of attachment. Cbz = O=C(OCc1ccccc1)*
Response field label: string, one of rule met (IC50 strictly below 0.05 µM) or rule not met.

Recorded results for 5 compounds are shown here.
# COMPOUND, CLASS
measured = [
    ("CC(C)C[C@H](NC(=O)OCc1ccccc1)C(=O)N[C@H](C=O)Cc1ccccc1 [Example 19] (Cbz-Leu-Phe-aldehyde)", "rule not met"),
    ("CSCC[C@@H](C=O)NC(=O)[C@H](CC(C)C)NC(=O)CCCc1ccccc1 [Example 24]", "rule met"),
    ("CCCC[C@H](NC(=O)[C@H](CC(C)C)NC(=O)CCCc1ccccc1)C(=O)CCl [Example 27]", "rule not met"),
    ("CCCC[C@@H](C=O)NC(=O)[C@H](CC(C)C)NC(=O)CCCc1ccccc1 [Example 23]", "rule met"),
    ("CCCC[C@H](NC(=O)[C@H](CC(C)C)NC(=O)OCc1ccccc1)C(=O)CCl [Example 26]", "rule not met"),
]

Okay, now this compound:
Query: Hello, I'm reviewing records and need to know if IC50 of CCCC[C@@H](C=O)NC(=O)[C@H](CC(C)C)NC(=O)OCc1ccccc1 [Example 20] is below 0.05 µM. Could you check?
Result: rule not met

----------
Biological target: calpain I (Homo sapiens)
Sequence (P07384 1-714): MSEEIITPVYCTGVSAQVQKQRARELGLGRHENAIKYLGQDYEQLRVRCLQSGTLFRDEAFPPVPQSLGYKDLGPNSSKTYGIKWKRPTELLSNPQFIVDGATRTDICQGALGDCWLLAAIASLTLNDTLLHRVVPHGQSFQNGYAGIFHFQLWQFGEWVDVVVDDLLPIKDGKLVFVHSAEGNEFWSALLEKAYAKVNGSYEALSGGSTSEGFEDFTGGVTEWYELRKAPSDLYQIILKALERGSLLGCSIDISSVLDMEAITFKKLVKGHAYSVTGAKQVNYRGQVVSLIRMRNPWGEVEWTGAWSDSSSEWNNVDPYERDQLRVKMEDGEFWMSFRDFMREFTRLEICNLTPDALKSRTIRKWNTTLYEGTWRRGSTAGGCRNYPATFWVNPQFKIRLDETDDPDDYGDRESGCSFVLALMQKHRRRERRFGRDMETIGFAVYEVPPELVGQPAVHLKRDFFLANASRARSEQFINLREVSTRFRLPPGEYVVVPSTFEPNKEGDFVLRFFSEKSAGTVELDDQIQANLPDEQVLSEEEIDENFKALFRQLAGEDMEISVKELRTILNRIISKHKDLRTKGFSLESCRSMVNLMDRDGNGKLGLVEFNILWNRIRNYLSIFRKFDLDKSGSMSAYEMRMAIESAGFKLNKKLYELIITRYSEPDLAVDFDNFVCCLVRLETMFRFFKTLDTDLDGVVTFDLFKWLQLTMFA
Sequence (P04632 1-268 partner): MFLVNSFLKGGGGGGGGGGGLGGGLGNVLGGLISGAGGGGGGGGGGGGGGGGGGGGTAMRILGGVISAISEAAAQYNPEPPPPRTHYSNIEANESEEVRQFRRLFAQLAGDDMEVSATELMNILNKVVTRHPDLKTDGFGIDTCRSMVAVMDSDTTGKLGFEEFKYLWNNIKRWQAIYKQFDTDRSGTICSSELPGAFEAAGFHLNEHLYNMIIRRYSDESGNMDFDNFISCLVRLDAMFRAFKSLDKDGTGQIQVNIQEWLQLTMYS
Assay: Anti-calpain activity, calpain I (casein hydrolysis, Ross-Schatz method)
Format: biochemical
Details: Table 6 (Example 29); pH 7.5, 30° C., 30 minutes, casein; read-out: Inhibitory activity toward calpain I, IC50
PROPERTY NAME: pIC50
pIC50 here is simply -log10 of the concentration when that concentration is written in mol/L.

# TEST SMILES, ASSAY TARGET, pIC50
measured = [
    ("CCCC[C@@H](C=O)NC(=O)[C@H](CC(C)C)NC(=O)OCc1ccc(Cl)cc1", "calpain I (Homo sapiens)", 7.06),
    ("CCCC[C@@H](C=O)NC(=O)[C@H](CC(C)C)NC(C)=CC(=O)c1ccccc1", "calpain I (Homo sapiens)", 6.40),
    ("CCCC[C@@H](C=O)NC(=O)[C@H](CC(C)C)NC(=O)OCC(Cl)(Cl)Cl", "calpain I (Homo sapiens)", 7.02),
    ("CCCC[C@@H](C=O)NC(=O)[C@H](CC(C)C)NC(=O)OC12CC3CC(CC(C3)C1)C2", "calpain I (Homo sapiens)", 6.82),
    ("CCCC[C@@H](C=O)NC(=O)[C@H](CC(C)C)NC(=O)OCc1ccccc1Cl", "calpain I (Homo sapiens)", 6.96),
]

Entry under test: CCCC[C@@H](C=O)NC(=O)[C@H](CC(C)C)NC(=O)CC(C)C . Its pIC50 was 7.00

Entry under test: CCCC[C@@H](C=O)NC(=O)[C@H](CC(C)C)NC(=O)OC(C)(C)C . Its pIC50 was 7.52

Entry under test: CCCC[C@@H](C=O)NC(=O)[C@H](CC(C)C)NC(=O)OCc1ccccc1 . Its pIC50 was 6.15

Entry under test: CCCC[C@@H](C=O)NC(=O)[C@H](CC(C)C)NC(=O)OCc1ccc(OC)cc1 . Its pIC50 was 7.00

Entry under test: CCCCCCCC(=O)N[C@@H](CC(C)C)C(=O)N[C@H](C=O)CCCC . Its pIC50 was 6.80

Entry under test: CCCC[C@@H](C=O)NC(=O)[C@H](CC(C)C)NC(=O)OCc1ccc([N+](=O)[O-])cc1 . Its pIC50 was 7.04

Entry under test: CCCC[C@@H](C=O)NC(=O)[C@H](CC(C)C)NS(=O)(=O)c1ccc(C)cc1 . Its pIC50 was 6.96

Entry under test: CCCC[C@@H](C=O)NC(=O)[C@H](CCCC)NC(=O)OCc1ccccc1 . Its pIC50 was 6.15

Hey, just so you know, these numbers are from patent US5081284A.
